Kindly state pIC50 for each of the entries shown.
# ASSAYED_SYSTEM: cytoplasmic domain of the human VEGF receptor (VEGFR-2) (Homo sapiens)
# Construct: The cytoplasmic domain of the human VEGF receptor (VEGFR-2) was expressed as a Histidine-tagged fusion protein; Histidine tag
# Sequence (P35968 786-1356): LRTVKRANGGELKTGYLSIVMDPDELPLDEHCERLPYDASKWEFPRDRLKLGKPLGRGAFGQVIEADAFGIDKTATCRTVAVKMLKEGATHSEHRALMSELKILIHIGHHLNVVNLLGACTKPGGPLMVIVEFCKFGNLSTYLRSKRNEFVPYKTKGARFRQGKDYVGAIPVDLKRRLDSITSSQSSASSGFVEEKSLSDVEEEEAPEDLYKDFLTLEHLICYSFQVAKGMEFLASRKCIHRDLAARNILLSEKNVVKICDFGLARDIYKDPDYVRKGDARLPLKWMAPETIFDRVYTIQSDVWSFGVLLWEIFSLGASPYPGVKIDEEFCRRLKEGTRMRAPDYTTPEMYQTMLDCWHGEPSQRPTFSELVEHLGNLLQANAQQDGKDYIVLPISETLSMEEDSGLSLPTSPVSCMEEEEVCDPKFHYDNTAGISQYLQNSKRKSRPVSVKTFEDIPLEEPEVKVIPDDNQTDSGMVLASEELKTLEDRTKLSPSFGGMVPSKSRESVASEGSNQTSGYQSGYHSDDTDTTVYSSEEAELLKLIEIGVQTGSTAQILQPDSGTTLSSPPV
# ASSAY_EXPLANATION: KDR Assay
# CONDITIONS_USED: His-VEGFR-2; 3.6 μM ATP
pIC50 is a log-scale quantity: -log10 of the concentration expressed in molar.

What the record says about O=C(O)CCc1cccc(NC=C2C(=O)Nc3ccccc32)c1 [Example 141] : pIC50 is 6.29

What the record says about CCc1ccc(NC=C2C(=O)Nc3ccc(Cl)cc32)cc1 [Example 149] : pIC50 is 6.21

What the record says about O=C1Nc2ccccc2C1=CNc1ccc(OCCCCN2CCCC2)cc1 [Example 179] : pIC50 is 6.51

What the record says about CN(C)c1ccc(NC=C2C(=O)Nc3ccccc32)cc1 [Example 156] : pIC50 is 6.29

What the record says about O=C1Nc2ccccc2C1=CNc1ccc(CN2CCOCC2)cc1 [Example 290] : pIC50 is 6.24

Sourced from patent US20030225152A1
